All values here come from ChEMBL document CHEMBL4513216.

# Test system: Plasmodium berghei
# Test: Screen against P. berghei liver stage (PbLuc), transformed with Luciferase, at 10uM
# Format: functional, HepG2
# Reported Conditions: tested at 10 uM
Hit rate of the full screen: of about 69,000 compounds, about 8,600 (12%) showed an effect of 50% or more. The sample holds strong results, similar compounds and a random draw of the others, so the mix is not that of the screen.
Entries whose INHIBITION is below 30% take y; entries at or above 30% take n.

| Compound | Classification |
| --- | --- |
| CC(NC(=O)NCc1cccs1)c1ccc2c(c1)CCC(=O)N2 (configuration not stated) | y |
| CC(C)NC(=O)N1CC[C@@H](N(C)C)[C@@H]1Cc1ccncc1 | y |
| CN1CCC(CN(C)C(=O)c2cc(C3CCCN3C)ccn2)CC1 (configuration not stated) | y |
| CN(CC(=O)Nc1ccccc1C(=O)NC1CC1)Cc1ccccc1Cl | y |
| CCC(=O)N1CCC2(CC1)COc1ccccc1S(=O)(=O)N(C)C2 | y |
| CNCC[C@H]1CC(C)(C)Oc2ccc(C)cc21 | n |
| O=C(O)COCC(=O)NC1CC2(CCCCC2)Oc2ccccc21 (configuration not stated) | y |
| COCCN1CCC2(CC1)COc1ccccc1S(=O)(=O)N(C)C2 | y |
| CN(C)CC(=O)N1CCC2(CC1)COc1ccccc1S(=O)(=O)N(C)C2 | n |
| CCS(=O)(=O)CC(=O)NCC1(c2c(F)cccc2F)CCCC1 | n |
| CCOc1ccccc1NC(=O)CN(C)Cc1ccccc1Cl | n |
| CNCC[C@H]1CC(C)(C)Oc2ccc(OC)cc21 | n |

* * *

# Test system: Plasmodium berghei
# Test: Screen against P. berghei liver stage (PbLuc), transformed with Luciferase, at 10uM
# Assay type: functional, HepG2
# Reported Conditions: tested at 10 uM
In all, about 69,000 compounds went through this assay and about 8,600 (12%) showed an effect of 50% or more. This is one part of a sample in which strong results are shown more often than they occur.

| Compound | Output Unit | INHIBITION |
| --- | --- | --- |
| CCSc1ccc(C(=O)N2CCCCC2C(=O)N2CCCC2)cn1 (stereo unspecified) | % | 20.4 |
| Nc1ncnc2nc(C3CCN(C(=O)Cc4ccccc4)C3)ccc12 (stereo unspecified) | % | 6.3535 |
| O=C(CNc1cc(-n2cnnn2)ccc1F)NCc1ccccc1 | % | 53.4 |
| Cc1cnc(N2C[C@@H]3[C@@H](C2)OCC(=O)N3CC(C)C)nc1 | % | 40.8 |
| Cc1ccccc1C(CNc1ncnc2c1CCNC2)N(C)C (stereo unspecified) | % | -2.98 |
| O=C(CNc1cc(-n2cnnn2)ccc1F)Nc1ccccc1Cl | % | 41.4 |
| Cc1nc2c(c(C)c1CC(=O)NCc1cccs1)c(=O)[nH]n2C | % | -0.219 |
| Cc1nn(C2CCS(=O)(=O)C2)c(O)c1Cc1ccccc1 (stereo unspecified) | % | 36.9 |
| Cc1nc2n(n1)CC(NCc1cnn(-c3ccccc3)n1)CC2 (stereo unspecified) | % | -39.4 |
| Cc1cc(C)n(CC(=O)N2CCC(c3nc(C(C)C)no3)CC2)n1 | % | -6.42 |
| Cc1cccc(=O)n1CCCNc1ncnc2c1CCNCC2 | % | -1.98 |
